Attribution: PubChem BioAssay (NCI)

Each record here notes measured growth.
Test system: A549/ATCC NSCLC
procedure.text: NCI-60 one-dose screen, 48 h (100 = growth as untreated, 0 = no growth, -100 = all killed)
setup.conditions: 10 µM unless noted
Compounds without any hit were thinned out: in the full panel of roughly 83,000, 20% have a hit. Activity calls are given as the source filed them. Rule for the calls: active = growth percent below 10; inactive = the rest.

{"columns": ["molecule", "tested.system", "growth"],
 "data": [
  ["COc1cc(Cl)ccc1C", "A549/ATCC NSCLC", "84.5% (inactive)"],
  ["COc1ccc(/C=N/NC(N)=S)cc1", "A549/ATCC NSCLC", "82.1% (inactive)"],
  ["C=CCN1C(=O)c2ccccc2C1=O", "A549/ATCC NSCLC", "100% (inactive)"],
  ["O=COCCCc1ccccc1", "A549/ATCC NSCLC", "83.7% (inactive)"],
  ["CC1NC(C)c2ccc3ccccc3c2O1 (centres undefined)", "A549/ATCC NSCLC", "106% (inactive)"],
  ["COCCNC(C)=O", "A549/ATCC NSCLC", "104% (inactive)"],
  ["O=C(c1ccncc1)c1c(Cc2ccccc2)ccc2ccccc12", "A549/ATCC NSCLC", "72.2% (inactive)"],
  ["Clc1ccc2sc(-c3ccccc3)nc2c1", "A549/ATCC NSCLC", "71.4% (inactive)"],
  ["COc1ccccc1OCC(O)CO (centres undefined)", "A549/ATCC NSCLC", "96.6% (inactive)"],
  ["O=[N+]([O-])c1ccc(N/N=C/C2CCCCCC2)c([N+](=O)[O-])c1", "A549/ATCC NSCLC", "79.9% (inactive)"],
  ["COC(=O)C(Cc1cn(C(C)=O)c2ccccc12)P(=O)(OC)OC (centres undefined)", "A549/ATCC NSCLC", "106% (inactive)"],
  ["CCCC(=O)Oc1ccc(CC)cc1", "A549/ATCC NSCLC", "101% (inactive)"],
  ["O=C(c1ccccc1)C1(Br)CCCCC1", "A549/ATCC NSCLC", "96.8% (inactive)"],
  ["O=C(NC(CSSCC(NC(=O)OCc1ccccc1)C(=O)O)C(=O)O)OCc1ccccc1 (centres undefined)", "A549/ATCC NSCLC", "80.5% (inactive)"]
]}

====

Tested on: MDA-MB-435 melanoma
procedure.text: NCI-60 one-dose screen, 48 h (100 = growth as untreated, 0 = no growth, -100 = all killed)
setup.conditions: 10 µM unless noted
Compounds without any hit were thinned out: in the full panel of roughly 83,000, 20% have a hit. Active and inactive are the calls of the source. The calls were made as follows: active = growth percent below 10; inactive = the rest.
Each record here notes measured growth.
assay.metric: growth

{"columns": ["compound", "experimental.result"],
 "data": [
  ["O=S(=O)(O)c1ccc2cc(O)ccc2c1", "107% (inactive)"],
  ["CC1=CC(=O)c2cccc(NC3=NCCO3)c21", "98.4% (inactive)"],
  ["COC(=O)c1ccccc1Cl", "103% (inactive)"],
  ["CC(=O)c1cc2ccccc2o1", "109% (inactive)"],
  ["Cc1c(Cl)cc(Cl)c(N)c1Cl", "104% (inactive)"],
  ["COCCNC(C)=O", "105% (inactive)"],
  ["Oc1ccc(O)c(-c2ccccc2)c1", "81.8% (inactive)"],
  ["O=C1c2cccnc2-c2ncccc21", "103% [100 µM] (inactive)"],
  ["CN(C)CC(CN(C)C)C(O)c1ccccc1 (centres undefined)", "112% (inactive)"],
  ["CCOC(=O)c1ccc(N2C(=O)C(Cl)(c3ccccc3)C2c2ccco2)cc1 (centres undefined)", "93.4% (inactive)"],
  ["COCCCNC1=C(C#N)C(=O)NC(c2cccs2)S1 (centres undefined)", "95.9% (inactive)"],
  ["CCCC(=O)Oc1ccc(CC)cc1", "107% (inactive)"],
  ["CC(O)CCNC(c1ccccc1)C(O)c1ccccc1 (centres undefined)", "112% (inactive)"],
  ["O=c1[nH]c(=O)c2[nH]c(=O)[nH]c2[nH]1", "100% (inactive)"]
]}
